Each recorded value in this set is attributed to patent US20160030415A1.

Tested on: STZ induced diabetic nephropathy in rats
method: Study 3: HCQ and its combination with Losartan, Telmisartan, Azilsartan and Ramipril
Assay type: in vivo, Wistar rats
stated.conditions: dose mg/kg: LT 5.5, TL 5, AZ 2, RM 0.2, HCQ 22.5, alone or combined with HCQ 22.5; oral once daily 8 weeks
experimental.endpoint: Serum protein (g/dL)
Give bare numbers, in g/dL.

Illustrative cases are given below, each with its answer.
CCN(CCO)CCCC(C)Nc1ccnc2cc(Cl)ccc12 (centres unmarked) [Hydroxychloroquine]
5.57
CCCCc1nc(Cl)c(CO)n1Cc1ccc(-c2ccccc2-c2nn[nH]n2)cc1
5.23
CCCc1nc2c(C)cc(-c3nc4ccccc4n3C)cc2n1Cc1ccc(-c2ccccc2C(=O)O)cc1
5.94
CCOC(=O)[C@H](CCc1ccccc1)N[C@@H](C)C(=O)N1[C@H](C(=O)O)C[C@@H]2CCC[C@@H]21
5.30

Shifting focus to the compound that follows.
Problem: GET /values?readout=Serum protein&item= `CCOc1nc2cccc(C(=O)O)c2n1Cc1ccc(-c2ccccc2-c2nc(=O)o[nH]2)cc1`
Result: 5.79

* * *

Test system: STZ induced diabetic nephropathy in rats
method: Study 4: HCQ and its combination with Losartan, Telmisartan, Azilsartan and Ramipril, with Glimepiride control
Assay type: in vivo, Wistar rats
stated.conditions: kidney homogenate, after 8th week; dose mg/kg: HCQ 45, LT 11, RM 0.6, TL 9.5, AZ 4.5, alone or combined with HCQ 45
experimental.endpoint: GSH (nM/mg)
Numbers only, in nM/mg.

Illustrative cases are given below, each with its answer.
CCN(CCO)CCCC(C)Nc1ccnc2cc(Cl)ccc12 (centres unmarked) [Hydroxychloroquine]
0.7
CCCCc1nc(Cl)c(CO)n1Cc1ccc(-c2ccccc2-c2nn[nH]n2)cc1
0.66
CCOC(=O)[C@H](CCc1ccccc1)N[C@@H](C)C(=O)N1[C@H](C(=O)O)C[C@@H]2CCC[C@@H]21
1.16
CCOc1nc2cccc(C(=O)O)c2n1Cc1ccc(-c2ccccc2-c2nc(=O)o[nH]2)cc1
1.26

Shifting focus to the compound that follows.
Problem: GET /values?readout=GSH&item= `CCCc1nc2c(C)cc(-c3nc4ccccc4n3C)cc2n1Cc1ccc(-c2ccccc2C(=O)O)cc1`
Result: 0.96

* * *

Test system: STZ induced diabetic nephropathy in rats
method: Study 4: HCQ and its combination with Losartan, Telmisartan, Azilsartan and Ramipril, with Glimepiride control
Type: in vivo, Wistar rats
stated.conditions: blood, Day42; dose mg/kg: HCQ 35, LT 5.5, RM 0.3, TL 4.5, AZ 2.5, alone or combined with HCQ 35
experimental.endpoint: Glucose Day42 (mg/dL)
One number for each entry, in mg/dL.

CCCc1nc2c(C)cc(-c3nc4ccccc4n3C)cc2n1Cc1ccc(-c2ccccc2C(=O)O)cc1 [Telmisartan]
162
CCOc1nc2cccc(C(=O)O)c2n1Cc1ccc(-c2ccccc2-c2nc(=O)o[nH]2)cc1 [Azilsartan]
160.67
CCCCc1nc(Cl)c(CO)n1Cc1ccc(-c2ccccc2-c2nn[nH]n2)cc1 [Losartan]
161.17

Could you tell me Glucose Day42 for each of these compounds? They are listed below.
1. CCOC(=O)[C@H](CCc1ccccc1)N[C@@H](C)C(=O)N1[C@H](C(=O)O)C[C@@H]2CCC[C@@H]21 [Ramipril]
2. CCN(CCO)CCCC(C)Nc1ccnc2cc(Cl)ccc12 (centres unmarked) [Hydroxychloroquine]

Result:
1: 158.5; 2: 165

* * *

Record form. Attribute: GSH. Fill in for each entry.
System: STZ induced diabetic nephropathy in rats
method: Study 4: HCQ and its combination with Losartan, Telmisartan, Azilsartan and Ramipril, with Glimepiride control
Format: in vivo, Wistar rats
stated.conditions: kidney homogenate, after 8th week; dose mg/kg: HCQ 35, LT 5.5, RM 0.3, TL 4.5, AZ 2.5, alone or combined with HCQ 35
The answer should read as a number with its unit following.

CCN(CCO)CCCC(C)Nc1ccnc2cc(Cl)ccc12 (centres unmarked) [Hydroxychloroquine]
0.71 ± 0.16 nM/mg

Could you tell me GSH for each of these molecules? They are listed below.
1. CCCCc1nc(Cl)c(CO)n1Cc1ccc(-c2ccccc2-c2nn[nH]n2)cc1
2. CCCc1nc2c(C)cc(-c3nc4ccccc4n3C)cc2n1Cc1ccc(-c2ccccc2C(=O)O)cc1
3. CCOc1nc2cccc(C(=O)O)c2n1Cc1ccc(-c2ccccc2-c2nc(=O)o[nH]2)cc1

Result:
1. 0.56 ± 0.23 nM/mg
2. 0.86 ± 0.06 nM/mg
3. 0.86 ± 0.21 nM/mg

Problem: GET /values?readout=GSH&item= `CCOC(=O)[C@H](CCc1ccccc1)N[C@@H](C)C(=O)N1[C@H](C(=O)O)C[C@@H]2CCC[C@@H]21`
Result: 1.16 ± 0.62 nM/mg

* * *

Tested on: STZ induced diabetic nephropathy in rats
method: Study 4: HCQ and its combination with Losartan, Telmisartan, Azilsartan and Ramipril, with Glimepiride control
Type: in vivo, Wistar rats
stated.conditions: after 8th week; dose mg/kg: HCQ 45, LT 11, RM 0.6, TL 9.5, AZ 4.5, alone or combined with HCQ 45
experimental.endpoint: TC (mg/dL)
Numbers only, in mg/dL.

Illustrative cases are given below, each with its answer.
CCCc1nc2c(C)cc(-c3nc4ccccc4n3C)cc2n1Cc1ccc(-c2ccccc2C(=O)O)cc1
141.5
CCOC(=O)[C@H](CCc1ccccc1)N[C@@H](C)C(=O)N1[C@H](C(=O)O)C[C@@H]2CCC[C@@H]21
142.17
CCOc1nc2cccc(C(=O)O)c2n1Cc1ccc(-c2ccccc2-c2nc(=O)o[nH]2)cc1
141.17
CCCCc1nc(Cl)c(CO)n1Cc1ccc(-c2ccccc2-c2nn[nH]n2)cc1
139.83

Shifting focus to the compound that follows.
Problem: GET /values?readout=TC&item= CCN(CCO)CCCC(C)Nc1ccnc2cc(Cl)ccc12 (centres unmarked) [Hydroxychloroquine]
Result: 130.33

* * *

System: STZ induced diabetic nephropathy in rats
method: Study 4: HCQ and its combination with Losartan, Telmisartan, Azilsartan and Ramipril, with Glimepiride control
Format: in vivo, Wistar rats
stated.conditions: kidney homogenate, after 8th week; dose mg/kg: HCQ 35, LT 5.5, RM 0.3, TL 4.5, AZ 2.5, alone or combined with HCQ 35
experimental.endpoint: Total protein kidney (µg/mL)
Answers are plain numbers, in µg/mL.

Illustrative cases are given below, each with its answer.
CCOC(=O)[C@H](CCc1ccccc1)N[C@@H](C)C(=O)N1[C@H](C(=O)O)C[C@@H]2CCC[C@@H]21
835.33
CCN(CCO)CCCC(C)Nc1ccnc2cc(Cl)ccc12 (centres unmarked) [Hydroxychloroquine]
865.33
CCCc1nc2c(C)cc(-c3nc4ccccc4n3C)cc2n1Cc1ccc(-c2ccccc2C(=O)O)cc1
879.17
CCCCc1nc(Cl)c(CO)n1Cc1ccc(-c2ccccc2-c2nn[nH]n2)cc1
893.33

Shifting focus to the molecule that follows.
Problem: Lab note: need Total protein kidney for `CCOc1nc2cccc(C(=O)O)c2n1Cc1ccc(-c2ccccc2-c2nc(=O)o[nH]2)cc1` on STZ induced diabetic nephropathy in rats, anyone have it?
Result: 874.5

* * *

Tested on: STZ induced diabetic nephropathy in rats
method: Study 3: HCQ and its combination with Losartan, Telmisartan, Azilsartan and Ramipril
Format: in vivo, Wistar rats
stated.conditions: dose mg/kg: LT 11, TL 10, AZ 4, RM 2.3, HCQ 45, alone or combined with HCQ 45; oral once daily 8 weeks
Record form. Attribute: Urea clearance. Fill in for each entry.
Numbers only, in mL/min.

Illustrative cases are given below, each with its answer.
CCCCc1nc(Cl)c(CO)n1Cc1ccc(-c2ccccc2-c2nn[nH]n2)cc1
0.44
CCOC(=O)[C@H](CCc1ccccc1)N[C@@H](C)C(=O)N1[C@H](C(=O)O)C[C@@H]2CCC[C@@H]21
0.45
CCCc1nc2c(C)cc(-c3nc4ccccc4n3C)cc2n1Cc1ccc(-c2ccccc2C(=O)O)cc1
0.47
CCOc1nc2cccc(C(=O)O)c2n1Cc1ccc(-c2ccccc2-c2nc(=O)o[nH]2)cc1
0.44

Shifting focus to the compound that follows.
Problem: GET /values?readout=Urea clearance&item= CCN(CCO)CCCC(C)Nc1ccnc2cc(Cl)ccc12 (centres unmarked) [Hydroxychloroquine]
Result: 0.42

* * *

Record form. Attribute: TBARS. Fill in for each entry.
System: STZ induced diabetic nephropathy in rats
method: Study 3: HCQ and its combination with Losartan, Telmisartan, Azilsartan and Ramipril
Assay type: in vivo, Wistar rats
stated.conditions: dose mg/kg: LT 11, TL 10, AZ 4, RM 2.3, HCQ 45, alone or combined with HCQ 45; oral once daily 8 weeks
One number for each entry, in nM/mg.

Illustrative cases are given below, each with its answer.
CCOC(=O)[C@H](CCc1ccccc1)N[C@@H](C)C(=O)N1[C@H](C(=O)O)C[C@@H]2CCC[C@@H]21
0.614
CCOc1nc2cccc(C(=O)O)c2n1Cc1ccc(-c2ccccc2-c2nc(=O)o[nH]2)cc1
0.540
CCCc1nc2c(C)cc(-c3nc4ccccc4n3C)cc2n1Cc1ccc(-c2ccccc2C(=O)O)cc1
0.560

Could you tell me TBARS for each of these compounds? They are listed below.
1. CCN(CCO)CCCC(C)Nc1ccnc2cc(Cl)ccc12 (centres unmarked) [Hydroxychloroquine]
2. CCCCc1nc(Cl)c(CO)n1Cc1ccc(-c2ccccc2-c2nn[nH]n2)cc1

Result:
[0.608, 0.670]
